Origin of values: patent US20240025852A1

- study-system: Recombinant CYP3A4 Supersomes (Homo sapiens, UniProt P08684)
- Construct: purchased
- Sequence (P08684 whole entry): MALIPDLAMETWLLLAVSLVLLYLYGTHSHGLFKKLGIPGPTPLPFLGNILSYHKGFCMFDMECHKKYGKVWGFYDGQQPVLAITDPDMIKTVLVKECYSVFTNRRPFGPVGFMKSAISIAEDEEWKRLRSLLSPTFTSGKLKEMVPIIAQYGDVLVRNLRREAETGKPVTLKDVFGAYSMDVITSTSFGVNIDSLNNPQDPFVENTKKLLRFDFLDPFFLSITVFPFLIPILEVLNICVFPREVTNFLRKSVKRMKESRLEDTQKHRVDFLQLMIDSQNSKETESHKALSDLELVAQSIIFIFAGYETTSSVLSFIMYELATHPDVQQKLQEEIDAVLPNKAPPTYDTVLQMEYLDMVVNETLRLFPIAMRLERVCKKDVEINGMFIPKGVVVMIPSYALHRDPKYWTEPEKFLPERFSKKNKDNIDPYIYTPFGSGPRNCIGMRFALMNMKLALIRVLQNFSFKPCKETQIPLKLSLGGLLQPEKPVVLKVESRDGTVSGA
- method-notes: Recombinant CYP3A4 Clearance Assay
- Type: in vitro ADME
- stated-conditions: recombinant CYP3A4 50 pmol/mL, 1 μM substrate, NADPH; control = geometric mean of 3 replicates
- Method: The CYP3A4 Clearance Assay was performed to determine the stability of deuterated compounds described herein and calculate changes in clearance relative to the control compound (undeuterated compound) that has the following structure: […] LC-MS/MS chromatograms were analyzed by peak area ratio (test article peak area/internal standard peak area) and natural log transformed, and plotted against time. The slope of the line was determined to calculate elimination rate constant. […]
Listed here: items and their measured CLint.

Examples with answers:
>  <smiles-structure>
[2H]C([2H])(C(=O)NC(C([2H])([2H])[2H])(C([2H])([2H])[2H])C([2H])([2H])[2H])N1CCC(CNC(=O)c2cc(F)cc(Cl)c2)CC1

>  <result>
1.46 µL/min/pmol

$$$$
>  <smiles-structure>
[2H]C([2H])([2H])C(C)(C)NC(=O)CN1CCC(CNC(=O)c2cc(F)cc(Cl)c2)CC1

>  <result>
1.76 µL/min/pmol

$$$$
>  <smiles-structure>
[2H]C1([2H])CN(CC(=O)NC(C)(C([2H])([2H])[2H])C([2H])([2H])[2H])CC([2H])([2H])C1CNC(=O)c1cc(F)cc(Cl)c1

>  <result>
1.52 µL/min/pmol

$$$$

### Prompt Which CLint value is on record for [2H]C1([2H])CN(CC(=O)NC(C)(C)C([2H])([2H])[2H])CC([2H])([2H])C1CNC(=O)c1cc(F)cc(Cl)c1 ?
### Response 1.35 µL/min/pmol

### Prompt Given the molecule [2H]C1([2H])CC(CNC(=O)c2cc(F)cc(Cl)c2)CC([2H])([2H])N1CC(=O)NC(C)(C([2H])([2H])[2H])C([2H])([2H])[2H] , what is its reported CLint?
### Response 1.09 µL/min/pmol

### Prompt I am curious: what CLint value has been reported for [2H]C([2H])([2H])C(C)(NC(=O)CN1CCC(CNC(=O)c2cc(F)cc(Cl)c2)CC1)C([2H])([2H])[2H] ?
### Response 1.85 µL/min/pmol

---

- method-notes: Hμrel Low Clearance Assay
- Format: in vitro ADME, human
- stated-conditions: human, HμRELhumanPool 96-well hepatic co-culture, human hepatic co-culture, 1 μM substrate, 0-72 hr incubation; control = geometric mean of 3 replicates
attribute-measured: hepatocyte CLint at 1 μM (µL/min/1e6 cells)
Entry rule: numbers only, all in µL/min/1e6 cells.

>  <compound>
CC(C)(C)NC(=O)CN1CCC(CNC(=O)c2cc(F)cc(Cl)c2)CC1 [Control, reference compound]

>  <attribute-measured>
hepatocyte CLint at 1 μM

>  <result-number>
1.42

$$$$

### Prompt Dear colleague, I am looking for the recorded hepatocyte CLint at 1 μM of the following compound: [2H]C1([2H])CC(CNC(=O)c2cc(F)cc(Cl)c2)CC([2H])([2H])N1CC(=O)NC(C)(C)C([2H])([2H])[2H] [Compound 22]
### Response 0.872

### Prompt Given the entry [2H]C([2H])([2H])C(C)(NC(=O)CN1CCC(CNC(=O)c2cc(F)cc(Cl)c2)CC1)C([2H])([2H])[2H] [Compound 14] , report its measured hepatocyte CLint at 1 μM.
### Response 0.885

### Prompt # get_value(readout='hepatocyte CLint at 1 μM', item= [2H]C1([2H])N(CC(=O)NC(C)(C)C)C([2H])([2H])C([2H])([2H])C([2H])(CNC(=O)c2cc(F)cc(Cl)c2)C1([2H])[2H] [Compound 1] )
### Response 0.539

### Prompt Can you look up the measured hepatocyte CLint at 1 μM of [2H]C([2H])(C(=O)NC(C)(C)C([2H])([2H])[2H])N1CCC(CNC(=O)c2cc(F)cc(Cl)c2)CC1 [Compound 21] for me?
### Response 1.46

### Prompt Returns the measured hepatocyte CLint at 1 μM for the input compound. Input: [2H]C([2H])(NC(=O)c1cc(F)cc(Cl)c1)C1CCN(CC(=O)NC(C([2H])([2H])[2H])(C([2H])([2H])[2H])C([2H])([2H])[2H])CC1 [Compound 5]
### Response 1.32
